B1: OR4K15 (parent)
chain: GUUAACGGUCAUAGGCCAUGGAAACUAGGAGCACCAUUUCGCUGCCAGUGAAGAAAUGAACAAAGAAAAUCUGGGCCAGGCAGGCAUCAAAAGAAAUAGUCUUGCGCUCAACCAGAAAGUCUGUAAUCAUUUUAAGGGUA

Variants of: B1
method.notes: self-cleavage, relative activity (ratio to wild type); higher = more cleavage; in vitro, sequencing; the parent is a self-cleaving ribozyme
self-cleavage values by entry
Just the number, please, no unit attached.

For reference, reported self-cleavage for A36U A98U stands at 2.42

For reference, reported self-cleavage for U72C A117G stands at 0.22

For reference, reported self-cleavage for A59G A118U stands at 0.74

For reference, reported self-cleavage for U12G stands at 1.33

For reference, reported self-cleavage for A24G U26A stands at 0.98

For reference, reported self-cleavage for A30U A82G stands at 0.52

Reference for the values: the RNAGym collection of RNA variant scans (doi:10.7554/elife.90254)
